- System Under Test: CK1γ1 (Homo sapiens)
- Sequence (Q9HCP0 whole entry): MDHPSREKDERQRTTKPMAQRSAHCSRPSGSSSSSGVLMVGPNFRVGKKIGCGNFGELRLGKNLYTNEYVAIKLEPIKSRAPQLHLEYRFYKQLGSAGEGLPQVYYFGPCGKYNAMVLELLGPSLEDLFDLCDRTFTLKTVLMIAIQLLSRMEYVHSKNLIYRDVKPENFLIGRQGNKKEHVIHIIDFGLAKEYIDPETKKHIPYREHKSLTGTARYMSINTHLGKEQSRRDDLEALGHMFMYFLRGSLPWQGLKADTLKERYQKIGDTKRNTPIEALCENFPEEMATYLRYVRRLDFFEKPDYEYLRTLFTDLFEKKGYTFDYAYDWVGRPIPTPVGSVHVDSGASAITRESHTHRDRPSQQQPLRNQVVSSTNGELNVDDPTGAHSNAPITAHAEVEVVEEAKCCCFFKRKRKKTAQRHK
- Assay Remarks: CK1γ1 NanoBRET assay with tracer 23, intact cells
- Assay type: cell-based
- Run Conditions: read-out: NB IC50 CK1γ1; tracer 23; intact HEK293 cells; N = 1
List of IC50 values.

Molecule	IC50
Cc1ccc2nc(NC(=O)CSc3nc4c(c(=O)n3-c3ccc(F)cc3)SCC4)sc2c1 [IWP-3, reference compound]	> 30 µM

Next molecule, please.
Per the record, Nc1nccc(-c2c(-c3ccc(F)cc3)ncn2C2CCCCC2)n1 [PF-670462, reference compound] has IC50 of > 30 µM

---

- System Under Test: CK1γ3 (Homo sapiens, UniProt Q9Y6M4)
- Sequence (Q9Y6M4 33-362): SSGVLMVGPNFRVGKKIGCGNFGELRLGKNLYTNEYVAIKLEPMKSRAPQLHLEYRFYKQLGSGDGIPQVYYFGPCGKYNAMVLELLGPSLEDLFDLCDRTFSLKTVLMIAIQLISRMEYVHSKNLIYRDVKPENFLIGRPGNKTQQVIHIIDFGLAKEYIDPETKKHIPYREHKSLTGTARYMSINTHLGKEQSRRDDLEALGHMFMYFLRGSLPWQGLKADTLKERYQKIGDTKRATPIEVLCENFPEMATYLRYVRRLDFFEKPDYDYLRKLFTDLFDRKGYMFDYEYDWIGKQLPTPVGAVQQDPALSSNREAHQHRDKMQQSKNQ
- Assay Remarks: Eurofins radiometric enzymatic assay CK1γ3
- Assay type: biochemical
- Run Conditions: read-out: enzymatic IC50 CK1γ3, ATP at Km, N = 1
List of IC50 values.
Just the number please, in nM, no unit attached.

Answered cases to consult:
Smiles Str	Unit	IC50
N#Cc1ccc2nc(Nc3ccc(N4CCOCC4)c(F)c3)[nH]c2c1	nM	656
N#Cc1ccc2nc(Nc3ccc(N4CCOCC4)c(Br)c3)[nH]c2c1	nM	700

Next compound, please.
Per the record, "N#Cc1ccc2nc(Nc3ccc(N4CCOCC4)c(Cl)c3)[nH]c2c1" has IC50 of 958

---

- System Under Test: CK1γ2 (Homo sapiens, UniProt P78368)
- Sequence (P78368 whole entry): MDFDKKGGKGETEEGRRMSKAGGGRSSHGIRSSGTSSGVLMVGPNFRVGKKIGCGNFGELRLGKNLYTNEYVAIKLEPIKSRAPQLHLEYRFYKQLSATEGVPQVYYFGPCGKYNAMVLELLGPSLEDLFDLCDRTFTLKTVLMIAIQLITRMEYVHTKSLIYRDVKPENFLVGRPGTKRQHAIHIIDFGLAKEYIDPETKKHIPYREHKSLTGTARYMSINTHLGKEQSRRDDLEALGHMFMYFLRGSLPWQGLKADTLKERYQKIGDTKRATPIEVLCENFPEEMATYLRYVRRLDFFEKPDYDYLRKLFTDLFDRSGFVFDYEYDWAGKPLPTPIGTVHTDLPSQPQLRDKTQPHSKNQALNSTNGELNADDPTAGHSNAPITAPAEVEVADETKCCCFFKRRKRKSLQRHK
- Assay Remarks: Eurofins radiometric enzymatic assay CK1γ2
- Assay type: biochemical
Property Measured: pIC50
Would you please state pIC50, meaning minus log10 of the concentration in mol/L, as a bare number?

Answered cases to consult:
Smiles Str	pIC50
N#Cc1ccc2nc(Nc3ccc(N4CCOCC4)cc3)[nH]c2c1	7.09
COc1cc(N2CCOCC2)ccc1Nc1nc2ccc(C#N)cc2[nH]1	5.38
N#Cc1ccc2nc(Nc3ccc(N4CCOCC4)c(F)c3)[nH]c2c1	7.47
N#Cc1ccc2nc(Nc3ccc(N4CCOCC4)c(C(F)(F)F)c3)[nH]c2c1	7.47

Next compound, please.
Per the record, "N#Cc1ccc2nc(Nc3cc(F)c(N4CCOCC4)c(F)c3)[nH]c2c1" has pIC50 of 7.60

---

- System Under Test: MOK (Homo sapiens, UniProt Q9UQ07)
- Sequence (Q9UQ07 whole entry): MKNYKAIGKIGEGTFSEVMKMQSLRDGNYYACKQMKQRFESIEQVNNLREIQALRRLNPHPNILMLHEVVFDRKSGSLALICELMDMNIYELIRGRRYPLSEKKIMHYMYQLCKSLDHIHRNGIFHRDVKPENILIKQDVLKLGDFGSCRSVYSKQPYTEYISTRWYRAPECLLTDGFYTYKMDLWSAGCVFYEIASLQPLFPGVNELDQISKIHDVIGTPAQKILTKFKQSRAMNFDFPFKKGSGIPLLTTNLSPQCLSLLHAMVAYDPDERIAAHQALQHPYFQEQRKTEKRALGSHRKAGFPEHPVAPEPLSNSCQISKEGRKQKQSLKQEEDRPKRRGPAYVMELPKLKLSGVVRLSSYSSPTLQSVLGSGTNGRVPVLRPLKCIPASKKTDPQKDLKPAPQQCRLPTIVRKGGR
- Assay Remarks: MOK NanoBRET assay
Property Measured: IC50

Per the record, "N#Cc1ccc2nc(Nc3ccc(N4CCOCC4)c(Cl)c3)[nH]c2c1" has IC50 of > 5 µM

---

- System Under Test: CLK4 (Homo sapiens, UniProt Q9HAZ1)
- Sequence (Q9HAZ1 whole entry): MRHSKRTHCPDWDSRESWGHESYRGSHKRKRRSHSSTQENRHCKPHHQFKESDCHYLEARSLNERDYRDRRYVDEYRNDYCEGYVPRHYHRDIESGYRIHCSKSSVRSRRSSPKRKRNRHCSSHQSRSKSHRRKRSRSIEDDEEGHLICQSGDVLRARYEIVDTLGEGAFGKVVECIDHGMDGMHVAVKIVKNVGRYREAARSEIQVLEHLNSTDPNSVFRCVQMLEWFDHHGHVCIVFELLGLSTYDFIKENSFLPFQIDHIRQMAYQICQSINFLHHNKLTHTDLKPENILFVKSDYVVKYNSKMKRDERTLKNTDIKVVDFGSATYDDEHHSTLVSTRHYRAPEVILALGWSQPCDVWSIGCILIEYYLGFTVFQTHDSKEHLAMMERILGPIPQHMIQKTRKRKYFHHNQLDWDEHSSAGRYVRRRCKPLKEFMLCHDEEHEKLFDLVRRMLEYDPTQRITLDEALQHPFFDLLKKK
- Assay Remarks: CLK4 NanoBRET assay
Property Measured: IC50 (nM)
Just the number please, in nM, no unit attached.

Per the record, "CN1CCN(c2ccc(Nc3nc4ccc(C#N)cc4[nH]3)cc2Cl)CC1" has IC50 of 570

---

- System Under Test: CK1γ3 (Homo sapiens, UniProt Q9Y6M4)
- Assay Remarks: Eurofins radiometric enzymatic assay CK1γ3
- Type: biochemical
- Run Conditions: read-out: enzymatic IC50 CK1γ3, ATP at Km, N = 1
Property Measured: IC50
# include the unit after the value

Answered cases to consult:
Compound	Reading
COc1cc(N2CCOCC2)ccc1Nc1nc2ccc(C#N)cc2[nH]1 [Compound 5]	2750 nM
CN1CCN(c2ccc(Nc3nc4ccc(C#N)cc4[nH]3)cc2Cl)CC1 [Compound 21]	431 nM
N#Cc1ccc2[nH]c(Nc3ccc(N4CCCCC4)c(Cl)c3)nc2c1 [Compound 20]	475 nM
N#Cc1ccc2nc(Nc3ccc(N4CCOCC4)cc3)[nH]c2c1 [Compound 4]	1300 nM

Next compound, please.
Fill in: CK1γ3 (Homo sapiens, UniProt Q9Y6M4) IC50 for N#Cc1ccc2nc(Nc3cc(F)c(N4CCOCC4)c(F)c3)[nH]c2c1 [Compound 11] = 976 nM
